system tested: UniProt:P08183
assay details: Inhibition of ABCB1 overexpressed in human KBv1 cells at 10 uM by flow cytometric-based calcein-AM efflux assay
Format: cell-based
recorded conditions: KBv1 cells overexpressing ABCB1, probe calcein-AM
endpoint label: inhibition at 10 µM (%)

1. COc1ccc2c3c([nH]c2c1)[C@H](C=C(C)C)N1C(=O)[C@@H]2CCCN2C(=O)[C@@H]1C3 [FUMITREMORGIN] ... 0.8
2. COc1ccc2c3c([nH]c2c1)[C@H](CC(C)C)N1C(=O)[C@H](CCC(=O)OC(C)(C)C)NC(=O)[C@@H]1C3 ... 1.6

* * *

Known inhibition (INH) of a selection of compounds
system tested: Broad substrate specificity ATP-binding cassette transporter ABCG2 (Homo sapiens, UniProt Q9UNQ0)
assay details: Inhibition of ABCG2 over-expressed in human MCF7/Topo cells at 7 to 10 uM by flow cytometric-based mitoxantrone efflux assay relative to fumitremorgin C
Assay type: cell-based
endpoint label: inhibition (INH) (%)

1) COC(=O)c1ccc(C(=O)Nc2ccc(CCN3CCc4cc(OC)c(OC)cc4C3)cc2)cc1NC(=O)c1cnccn1 ... 38
2) COC(=O)c1ccc(C(=O)Nc2ccc(CCN3CCc4cc(OC)c(OC)cc4C3)cc2)cc1NC(=O)c1cccnc1 ... 47
3) COc1ccc(C(=O)Nc2ccc(CCN3CCc4cc(OC)c(OC)cc4C3)cc2)cc1NC(=O)c1cnc2ccccc2c1 ... 63

* * *

system tested: Broad substrate specificity ATP-binding cassette transporter ABCG2 (Homo sapiens)
assay details: Inhibition of ABCG2 overexpressed in human MCF7/Topo cells by flow cytometric-based mitoxantrone efflux assay
Known IC50 of a selection of compounds
endpoint label: IC50 (nM)

1. COc1cc2c(cc1OC)CN(CCc1ccc(NC(=O)c3cc(NC(=O)c4cnc5ccccc5c4)c(OC)c(OC)c3)cc1)CC2 ... 858
2. COc1cc(NC(=O)c2cnc3ccccc3c2)cc(C(=O)Nc2ccc(CCN3CCc4cc(OC)c(OC)cc4C3)cc2)c1 ... 977
3. COC(=O)c1ccc(C(=O)Nc2ccc(CCN3CCc4cc(OC)c(OC)cc4C3)cc2)cc1NC(=O)c1ccc2ccccc2n1 ... 60
4. COC(=O)c1ccc(C(=O)Nc2ccc(CCN3CCc4cc(OC)c(OC)cc4C3)cc2)cc1NC(=O)c1cnccn1 ... 632
5. COc1ccc(C(=O)Nc2ccc(CCN3CCc4cc(OC)c(OC)cc4C3)cc2)cc1NC(=O)c1cnc2ccccc2c1 ... 317
6. COc1cc2c(cc1OC)CN(CCc1ccc(NC(=O)c3ccc(C)c(NC(=O)c4cnc5ccccc5c4)c3)cc1)CC2 ... 1990

* * *

system tested: UniProtKB Q9UNQ0
assay details: Inhibition of ABCG2 over-expressed in human MCF7/Topo cells at 7 to 10 uM by flow cytometric-based mitoxantrone efflux assay relative to fumitremorgin C
Format: cell-based
Known inhibition (INH) of a selection of compounds
endpoint label: inhibition (INH) (%)

1) COC(=O)c1ccc(C(=O)Nc2ccc(CCN3CCc4cc(OC)c(OC)cc4C3)cc2)cc1NC(=O)c1ccc2ncccc2c1 ... 25
2) COc1cc(NC(=O)c2cnc3ccccc3c2)cc(C(=O)Nc2ccc(CCN3CCc4cc(OC)c(OC)cc4C3)cc2)c1 ... 43
3) COC(=O)c1ccc(C(=O)Nc2ccc(CCN3CCc4cc(OC)c(OC)cc4C3)cc2)cc1NC(=O)c1cnc2ccccc2n1 ... 55
4) COc1cc2c(cc1OC)CN(CCc1ccc(NC(=O)c3cc(OC)c(OC)cc3NC(=O)c3cnc4ccccc4c3)cc1)CC2 ... 39
5) COC(=O)c1ccc(C(=O)Nc2ccc(CCN3CCc4cc(OC)c(OC)cc4C3)cc2)cc1NC(=O)c1cnc2ccccc2c1 ... 41
6) COc1cc2c(cc1OC)CN(CCc1ccc(NC(=O)c3cc(NC(=O)c4cnc5ccccc5c4)c(OC)c(OC)c3)cc1)CC2 ... 36
7) COc1cc2c(cc1OC)CN(CCc1ccc(NC(=O)c3ccc(C)c(NC(=O)c4cnc5ccccc5c4)c3)cc1)CC2 ... 52

* * *

Known IC50 of a selection of compounds
system tested: ATP-dependent translocase ABCB1 (Homo sapiens, UniProt P08183)
Sequence (P08183 whole entry): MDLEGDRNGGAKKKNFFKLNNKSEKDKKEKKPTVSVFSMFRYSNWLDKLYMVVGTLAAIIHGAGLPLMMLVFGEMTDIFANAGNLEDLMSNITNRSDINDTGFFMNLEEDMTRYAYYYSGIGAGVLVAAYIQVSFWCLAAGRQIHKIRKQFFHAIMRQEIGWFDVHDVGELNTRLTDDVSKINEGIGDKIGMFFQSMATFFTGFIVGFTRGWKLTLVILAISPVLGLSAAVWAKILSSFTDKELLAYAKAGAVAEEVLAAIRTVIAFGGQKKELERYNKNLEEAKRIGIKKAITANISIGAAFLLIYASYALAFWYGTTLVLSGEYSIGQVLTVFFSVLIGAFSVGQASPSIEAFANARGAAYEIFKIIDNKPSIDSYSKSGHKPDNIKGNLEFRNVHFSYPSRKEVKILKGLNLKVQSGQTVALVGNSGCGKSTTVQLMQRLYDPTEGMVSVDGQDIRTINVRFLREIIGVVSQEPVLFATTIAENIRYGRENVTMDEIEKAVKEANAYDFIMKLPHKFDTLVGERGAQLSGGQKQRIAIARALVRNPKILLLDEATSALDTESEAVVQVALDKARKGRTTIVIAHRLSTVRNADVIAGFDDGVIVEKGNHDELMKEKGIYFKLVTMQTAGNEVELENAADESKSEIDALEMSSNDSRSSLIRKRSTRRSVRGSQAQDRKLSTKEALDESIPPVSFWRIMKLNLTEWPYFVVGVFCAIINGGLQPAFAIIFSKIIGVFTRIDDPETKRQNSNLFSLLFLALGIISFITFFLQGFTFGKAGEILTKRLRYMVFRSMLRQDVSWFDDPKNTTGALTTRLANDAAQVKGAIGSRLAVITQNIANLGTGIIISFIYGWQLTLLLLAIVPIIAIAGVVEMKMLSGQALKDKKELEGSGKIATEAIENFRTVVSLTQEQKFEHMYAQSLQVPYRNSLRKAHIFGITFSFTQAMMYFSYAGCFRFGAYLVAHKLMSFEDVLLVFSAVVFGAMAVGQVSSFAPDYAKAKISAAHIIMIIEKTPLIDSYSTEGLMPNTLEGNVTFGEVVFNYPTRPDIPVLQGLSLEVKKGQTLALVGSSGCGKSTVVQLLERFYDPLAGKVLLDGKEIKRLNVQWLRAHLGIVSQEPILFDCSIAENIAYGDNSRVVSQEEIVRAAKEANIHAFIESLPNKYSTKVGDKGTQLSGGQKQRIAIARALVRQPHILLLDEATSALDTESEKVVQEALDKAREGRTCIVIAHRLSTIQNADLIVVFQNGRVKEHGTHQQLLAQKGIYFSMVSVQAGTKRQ
assay details: Inhibition of ABCB1 overexpressed in human KBv1 cells by flow cytometric-based calcein-AM efflux assay
endpoint label: IC50

1. COC(=O)c1ccc(C(=O)Nc2ccc(CCN3CCc4cc(OC)c(OC)cc4C3)cc2)cc1NC(=O)c1cnc(C)cn1 ... > 57 µM
2. COC(=O)c1ccc(C(=O)Nc2ccc(CCN3CCc4cc(OC)c(OC)cc4C3)cc2)cc1NC(=O)c1cnc2ccccc2n1 ... > 34 µM
3. COC(=O)c1ccc(C(=O)Nc2ccc(CCN3CCc4cc(OC)c(OC)cc4C3)cc2)cc1NC(=O)c1cnc2ccccc2c1 ... 9.45 µM
4. COC(=O)c1ccc(C(=O)Nc2ccc(CCN3CCc4cc(OC)c(OC)cc4C3)cc2)cc1NC(=O)c1ccc2ccccc2n1 ... > 29 µM
5. COc1cc(NC(=O)c2cnc3ccccc3c2)cc(C(=O)Nc2ccc(CCN3CCc4cc(OC)c(OC)cc4C3)cc2)c1 ... > 15 µM
6. COc1cc2c(cc1OC)CN(CCc1ccc(NC(=O)c3ccc(C)c(NC(=O)c4cnc5ccccc5c4)c3)cc1)CC2 ... > 15 µM
7. COC(=O)c1ccc(C(=O)Nc2ccc(CCN3CCc4cc(OC)c(OC)cc4C3)cc2)cc1NC(=O)c1cnccn1 ... > 20 µM
8. COc1ccc(C(=O)Nc2ccc(CCN3CCc4cc(OC)c(OC)cc4C3)cc2)cc1NC(=O)c1cnc2ccccc2c1 ... > 6 µM
9. COc1cc2c(cc1OC)CN(CCc1ccc(NC(=O)c3cc(NC(=O)c4cnc5ccccc5c4)c(OC)c(OC)c3)cc1)CC2 ... > 17 µM
10. COC(=O)c1ccc(C(=O)Nc2ccc(CCN3CCc4cc(OC)c(OC)cc4C3)cc2)cc1NC(=O)c1cccnc1 ... > 14 µM

* * *

system tested: UniProt Q9UNQ0
Sequence (Q9UNQ0 whole entry): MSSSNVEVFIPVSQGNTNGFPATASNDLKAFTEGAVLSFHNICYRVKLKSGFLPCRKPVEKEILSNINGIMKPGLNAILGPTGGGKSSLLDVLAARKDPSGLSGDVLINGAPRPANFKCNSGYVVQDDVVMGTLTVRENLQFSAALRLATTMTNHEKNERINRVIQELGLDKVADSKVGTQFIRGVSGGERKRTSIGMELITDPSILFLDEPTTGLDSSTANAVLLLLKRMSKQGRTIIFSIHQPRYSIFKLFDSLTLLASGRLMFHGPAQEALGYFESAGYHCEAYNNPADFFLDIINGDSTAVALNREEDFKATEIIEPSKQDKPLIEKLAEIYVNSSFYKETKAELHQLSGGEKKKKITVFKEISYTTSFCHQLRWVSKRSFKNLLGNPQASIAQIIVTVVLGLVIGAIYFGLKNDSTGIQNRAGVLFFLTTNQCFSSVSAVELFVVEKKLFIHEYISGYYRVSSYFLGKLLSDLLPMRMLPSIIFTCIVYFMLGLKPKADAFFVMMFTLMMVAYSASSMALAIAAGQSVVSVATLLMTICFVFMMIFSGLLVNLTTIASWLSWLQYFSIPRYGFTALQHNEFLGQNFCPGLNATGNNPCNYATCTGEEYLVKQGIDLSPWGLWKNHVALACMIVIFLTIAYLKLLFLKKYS
assay details: Inhibition of ABCG2 over-expressed in human MCF7/Topo cells at 7 to 10 uM by flow cytometric-based mitoxantrone efflux assay relative to fumitremorgin C
Format: cell-based
Known inhibition (INH) of a selection of molecules
endpoint label: inhibition (INH) (%)

1. COc1ccc2c3c([nH]c2c1)[C@H](C=C(C)C)N1C(=O)[C@@H]2CCCN2C(=O)[C@@H]1C3 ... 100
2. COC(=O)c1ccc(C(=O)Nc2ccc(CCN3CCc4cc(OC)c(OC)cc4C3)cc2)cc1NC(=O)c1ccc2ccccc2n1 ... 56
3. COc1cc2c(cc1OC)CN(CCc1ccc(NC(=O)c3cccc4c(=O)c5cccc(OC)c5[nH]c34)cc1)CC2 ... 46
4. COC(=O)c1ccc(C(=O)Nc2ccc(CCN3CCc4cc(OC)c(OC)cc4C3)cc2)cc1NC(=O)c1cnc(C)cn1 ... 44

* * *

system tested: ATP-binding cassette sub-family C member 2 (Homo sapiens, UniProt Q92887)
Sequence (Q92887 whole entry): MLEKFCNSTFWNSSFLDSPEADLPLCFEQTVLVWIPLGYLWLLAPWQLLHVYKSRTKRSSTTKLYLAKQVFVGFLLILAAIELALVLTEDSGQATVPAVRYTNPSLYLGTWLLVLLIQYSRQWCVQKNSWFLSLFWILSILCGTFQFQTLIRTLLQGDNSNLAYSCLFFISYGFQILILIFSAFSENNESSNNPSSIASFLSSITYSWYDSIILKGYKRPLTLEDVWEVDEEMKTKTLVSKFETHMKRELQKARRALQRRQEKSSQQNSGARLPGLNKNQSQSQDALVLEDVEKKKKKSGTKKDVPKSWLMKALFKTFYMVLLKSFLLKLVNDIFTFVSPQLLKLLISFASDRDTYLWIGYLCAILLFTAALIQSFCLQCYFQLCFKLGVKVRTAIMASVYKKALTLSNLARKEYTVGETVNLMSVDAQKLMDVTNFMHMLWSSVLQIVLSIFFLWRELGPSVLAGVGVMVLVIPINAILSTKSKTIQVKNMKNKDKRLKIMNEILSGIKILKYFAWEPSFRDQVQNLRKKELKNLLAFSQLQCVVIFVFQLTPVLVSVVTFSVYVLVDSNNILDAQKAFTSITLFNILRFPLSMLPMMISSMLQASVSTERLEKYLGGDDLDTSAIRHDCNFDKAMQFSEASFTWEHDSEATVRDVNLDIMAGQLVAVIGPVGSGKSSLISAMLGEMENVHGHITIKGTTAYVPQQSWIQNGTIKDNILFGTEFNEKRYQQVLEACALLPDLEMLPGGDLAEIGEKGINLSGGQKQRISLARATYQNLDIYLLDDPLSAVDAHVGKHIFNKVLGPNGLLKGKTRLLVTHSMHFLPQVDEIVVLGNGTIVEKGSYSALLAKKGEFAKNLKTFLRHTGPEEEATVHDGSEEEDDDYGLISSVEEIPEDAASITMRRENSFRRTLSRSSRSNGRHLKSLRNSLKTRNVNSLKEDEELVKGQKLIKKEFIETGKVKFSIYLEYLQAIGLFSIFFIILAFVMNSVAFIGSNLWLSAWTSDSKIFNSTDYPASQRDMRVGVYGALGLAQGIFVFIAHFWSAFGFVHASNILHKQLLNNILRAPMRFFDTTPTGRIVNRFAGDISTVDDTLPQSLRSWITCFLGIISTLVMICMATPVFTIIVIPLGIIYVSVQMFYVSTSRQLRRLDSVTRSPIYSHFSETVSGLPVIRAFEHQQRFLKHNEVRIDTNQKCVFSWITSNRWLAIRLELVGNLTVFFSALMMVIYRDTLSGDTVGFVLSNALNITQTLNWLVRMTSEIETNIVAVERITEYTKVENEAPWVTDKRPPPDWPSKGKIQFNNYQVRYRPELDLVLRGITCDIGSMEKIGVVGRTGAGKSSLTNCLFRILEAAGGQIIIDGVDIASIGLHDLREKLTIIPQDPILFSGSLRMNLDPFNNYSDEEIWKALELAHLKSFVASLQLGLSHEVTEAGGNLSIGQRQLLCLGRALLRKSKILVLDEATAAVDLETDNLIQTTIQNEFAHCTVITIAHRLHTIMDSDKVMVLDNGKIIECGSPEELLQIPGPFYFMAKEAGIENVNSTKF
assay details: Inhibition of ABCC2 overexpressed in MDCK cells […] by flow cytometric-based chloromethylfluorescein-diacetate accumulation assay
pIC50: −log10 of the molar value.
Known pIC50 of a selection of compounds
endpoint label: pIC50

1) CN(C)C(=O)CCSC(SCCC(=O)O)c1cccc(/C=C/c2ccc3ccc(Cl)cc3n2)c1 (stereo not drawn) ... < 6.00
2) COC(=O)c1ccc(C(=O)Nc2ccc(CCN3CCc4cc(OC)c(OC)cc4C3)cc2)cc1NC(=O)c1ccc2ccccc2n1 ... < 4.70
3) CCCCC/C=C\C\C=C/C=C/C=C/[C@@H](SC[C@@H](NC(=O)CC[C@H](N)C(=O)O)C(=O)NCC(=O)O)[C@@H](O)CCCC(=O)O ... > 6.82
4) COc1ccc2c3c([nH]c2c1)[C@H](CC(C)C)N1C(=O)[C@H](CCC(=O)OC(C)(C)C)NC(=O)[C@@H]1C3 ... < 4.30
5) COC(=O)c1ccc(C(=O)Nc2ccc(CCN3CCc4cc(OC)c(OC)cc4C3)cc2)cc1NC(=O)c1cnc(C)cn1 ... < 4.70
6) COC(=O)c1ccc(C(=O)Nc2ccc(CCN3CCc4cc(OC)c(OC)cc4C3)cc2)cc1NC(=O)c1cccnc1 ... < 4.70
7) COC(=O)c1ccc(C(=O)Nc2ccc(CCN3CCc4cc(OC)c(OC)cc4C3)cc2)cc1NC(=O)c1cnccn1 ... < 4.30
8) COc1cc2c(cc1OC)CN(CCc1ccc(NC(=O)c3ccc(C)c(NC(=O)c4cnc5ccccc5c4)c3)cc1)CC2 ... < 4.30
